Values were extracted from patent US5739112A.

Overview of reported log10 of IC50 across a group of compounds:
test-target: Human factor Xa (Homo sapiens)
Construct: Human factor X contains a light-chain subunit containing 139 amino acid residues
Sequence (P00742 235-488 limits assumed): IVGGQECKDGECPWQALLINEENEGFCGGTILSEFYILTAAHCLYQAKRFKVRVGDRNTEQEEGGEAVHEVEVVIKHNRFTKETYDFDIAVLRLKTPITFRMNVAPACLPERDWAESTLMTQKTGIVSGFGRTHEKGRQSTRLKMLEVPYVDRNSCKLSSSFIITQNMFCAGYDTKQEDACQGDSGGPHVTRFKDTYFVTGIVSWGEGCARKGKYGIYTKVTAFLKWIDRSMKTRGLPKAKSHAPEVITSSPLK
Sequence (P00742 41-179 partner limits assumed): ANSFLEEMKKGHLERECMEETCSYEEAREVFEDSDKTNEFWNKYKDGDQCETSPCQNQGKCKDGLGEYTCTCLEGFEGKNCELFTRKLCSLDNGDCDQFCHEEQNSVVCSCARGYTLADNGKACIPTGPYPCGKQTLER
test-details: Factor Xa assay (chromogenic substrate S-2765)
experimental-conditions: 60 min preincubation at room temperature, TBSA pH 7.4
Numbered stars: 1 amine (or outer) side, 2 acyl side, 3 side chain; on linkers, the order of the positions; unused ones are H or OH. Square brackets hold non-standard residues; d marks the D form. Peptide text beside a SMILES is read from it. * marks the point of attachment. 1Nal = N[C@@H](Cc1cccc2ccccc12)C(=O)O; 2Nal = N[C@@H](Cc1ccc2ccccc2c1)C(=O)O; d2Nal = N[C@H](Cc1ccc2ccccc2c1)C(=O)O; dPhg = N[C@@H](C(=O)O)c1ccccc1; Suc = O=C(CCC(=O)[*:2])[*:1]; Boc = CC(C)(C)OC(=O)*
recorded-endpoint: log10 of IC50 (log10 of the value in nM)

[
  {
    "compound": "CC(=O)N[C@H](Cc1ccccc1)C(=O)N[C@@H](Cc1cccc2ccccc12)C(=O)N[C@H](C=O)CCCNC(=N)N [[6]] (Ac-[dF]-[1Nal]-Arg-aldehyde)",
    "observed-result": 1.40
  },
  {
    "compound": "CC(C)(C)OC(=O)N[C@@H](C(=O)N[C@@H](Cc1ccccc1)C(=O)N[C@H](C=O)CCCN=C(N)N)c1ccccc1 [[2]] (Boc-[dPhg]-Phe-Arg-aldehyde)",
    "observed-result": 2.81
  },
  {
    "compound": "CC(C)(C)OC(=O)N[C@H](Cc1ccccc1)C(=O)N[C@@H](Cc1ccccc1)C(=O)N[C@H](C=O)CCCNC(=N)N [[4]] (Boc-[dF]-Phe-Arg-aldehyde)",
    "observed-result": 2.32
  },
  {
    "compound": "CC(C)CCC(=O)N[C@H](Cc1ccccc1)C(=O)N[C@@H](Cc1cccc2ccccc12)C(=O)N[C@H](C=O)CCCNC(=N)N [[9]]",
    "observed-result": 2.23
  },
  {
    "compound": "CC(C)(C)OC(=O)NC(C(=O)N[C@@H](Cc1cccc2ccccc12)C(=O)N[C@H](C=O)CCCNC(=N)N)c1ccc(-c2ccccc2)cc1 (some centres unmarked) [[7]]",
    "observed-result": 3.40
  },
  {
    "compound": "CC(C)(C)OC(=O)N[C@H](Cc1ccccc1)C(=O)N[C@@H](Cc1cccc2ccccc12)C(=O)N[C@H](C=O)CCCNC(=N)N [[5]] (Boc-[dF]-[1Nal]-Arg-aldehyde)",
    "observed-result": 1.48
  },
  {
    "compound": "CC(C)(C)OC(=O)N[C@H](Cc1ccccc1)C(=O)N1CC[C@H](c2ccccc2)[C@H]1C(=O)N[C@H](C=O)CCCNC(=N)N (relative stereo) [[10]]",
    "observed-result": 2.80
  },
  {
    "compound": "N=C(N)NCCC[C@@H](C=O)NC(=O)[C@H](Cc1cccc2ccccc12)NC(=O)[C@@H](Cc1ccccc1)NC(=O)CCC(=O)O [[8]] (Suc-[dF]-[1Nal]-Arg-aldehyde)",
    "observed-result": 1.36
  },
  {
    "compound": "CC(C)(C)OC(=O)N[C@H](Cc1ccccc1)C(=O)N[C@@H](Cc1ccc2ccccc2c1)C(=O)N[C@H](C=O)CCCNC(=N)N [[3]] (Boc-[dF]-[2Nal]-Arg-aldehyde)",
    "observed-result": 2.95
  },
  {
    "compound": "CC(C)(C)OC(=O)N[C@H](Cc1ccccc1)C(=O)N1CCC[C@H]1C(=O)N[C@H](C=O)CCCNC(=N)N [[23], reference compound]",
    "observed-result": 3.76
  },
  {
    "compound": "CC(C)(C)OC(=O)N[C@H](Cc1ccc2ccccc2c1)C(=O)N[C@@H](Cc1ccccc1)C(=O)N[C@H](C=O)CCCNC(=N)N [[1]] (Boc-[d2Nal]-Phe-Arg-aldehyde)",
    "observed-result": 2.34
  }
]
